Biological target: mouse DLL3 on CHO-K1-mDLL3 cells (mouse) (UniProt O88516)
Sequence (O88516 other isoform, or with tags, fused parts or gaps limits assumed): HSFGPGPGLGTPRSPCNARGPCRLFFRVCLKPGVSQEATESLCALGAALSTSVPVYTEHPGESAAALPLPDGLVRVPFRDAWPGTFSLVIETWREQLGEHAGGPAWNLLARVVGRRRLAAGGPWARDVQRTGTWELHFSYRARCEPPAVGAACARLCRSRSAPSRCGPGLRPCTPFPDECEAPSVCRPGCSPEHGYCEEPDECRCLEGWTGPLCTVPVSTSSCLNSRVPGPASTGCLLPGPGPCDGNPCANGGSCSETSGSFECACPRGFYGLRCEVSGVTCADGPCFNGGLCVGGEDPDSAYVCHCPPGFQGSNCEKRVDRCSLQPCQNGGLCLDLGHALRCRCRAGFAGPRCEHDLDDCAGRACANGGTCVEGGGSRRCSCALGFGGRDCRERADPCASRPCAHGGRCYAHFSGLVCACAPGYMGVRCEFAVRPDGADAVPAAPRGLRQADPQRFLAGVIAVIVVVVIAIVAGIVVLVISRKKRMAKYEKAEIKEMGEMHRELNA
Assay: FACS, CHO-K1-mDLL3 cells, 0.0064 nM antibody
Kindly supply the reported MFI values for the records listed here.
Your answer is read as MFI, so omit the unit and give the number.

Answer with the recorded MFI of Hab006VL4VH2-hFc (scFv, part only; not given: scFv linker and human IgG1 Fc, V domains shown, not shown: another chain or arm of the molecule; a dimerising Fc or GST; small tags and cut ends) VL: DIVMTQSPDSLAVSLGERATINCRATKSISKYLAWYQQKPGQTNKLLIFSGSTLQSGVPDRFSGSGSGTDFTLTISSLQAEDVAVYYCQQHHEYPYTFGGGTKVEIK VH: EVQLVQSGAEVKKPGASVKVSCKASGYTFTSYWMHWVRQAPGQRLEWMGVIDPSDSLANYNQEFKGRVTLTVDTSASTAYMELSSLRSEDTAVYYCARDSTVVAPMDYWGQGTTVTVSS only.
118

Answer with the recorded MFI of Hab009VL1aVH1-hFc (scFv, part only; not given: scFv linker and human IgG1 Fc, V domains shown, not shown: another chain or arm of the molecule; a dimerising Fc or GST; small tags and cut ends) VL: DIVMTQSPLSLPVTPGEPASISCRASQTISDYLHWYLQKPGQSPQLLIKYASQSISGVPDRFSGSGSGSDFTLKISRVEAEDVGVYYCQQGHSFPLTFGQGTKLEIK VH: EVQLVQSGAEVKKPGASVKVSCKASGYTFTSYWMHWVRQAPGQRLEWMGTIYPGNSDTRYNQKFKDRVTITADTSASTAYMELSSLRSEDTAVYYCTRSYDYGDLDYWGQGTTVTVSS only.
109

Answer with the recorded MFI of Hab009VL3aVH1-hFc (scFv, part only; not given: VL-VH linker and human IgG1 Fc, V domains shown, not shown: another chain or arm of the molecule; a dimerising Fc or GST; small tags and cut ends) VL: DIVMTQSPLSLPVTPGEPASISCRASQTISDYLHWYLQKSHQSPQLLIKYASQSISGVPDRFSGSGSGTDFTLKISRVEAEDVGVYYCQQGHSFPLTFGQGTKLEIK VH: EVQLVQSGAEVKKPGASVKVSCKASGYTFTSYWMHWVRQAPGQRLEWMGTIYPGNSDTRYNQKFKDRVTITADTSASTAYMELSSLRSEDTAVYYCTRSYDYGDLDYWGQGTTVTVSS only.
269
